System: HOP-62
Assay: NCI screen antiproliferative activity, lung HOP-62
Measured GI50 by item
Endpoint Label: GI50

COc1cnc2c(c1)C(=O)c1c-2n(CCCN2CCOCC2)c(=O)c2cc(OC)c(OC)cc12.Cl [Compound 56, Hydrochloride] | 0.24 µM
Cl.O=C1c2cccnc2-c2c1c1ccccc1c(=O)n2CCCNCCO [Compound 30, Hydrochloride] | 1.41 µM
COc1cc2c3c(n(CCCN4CCOCC4)c(=O)c2cc1OC)-c1cnccc1C3=O.O=C(O)C(F)(F)F | 6.5 µM
COc1cc2c3c(n(CCCN)c(=O)c2cc1OC)-c1ncccc1C3=O.Cl [Compound 32, Hydrochloride] | 3.02 µM
